Data provenance: paper PMC4827872

target: DIO2 (Homo sapiens, UniProt Q92813); assay: DIO2 activity in H4 glioma cells exposed to PBDEs/OH-BDEs; type: cell-based; conditions: at the lowest dose that significantly decreased DIO2 activity
Sequence (Q92813 whole entry): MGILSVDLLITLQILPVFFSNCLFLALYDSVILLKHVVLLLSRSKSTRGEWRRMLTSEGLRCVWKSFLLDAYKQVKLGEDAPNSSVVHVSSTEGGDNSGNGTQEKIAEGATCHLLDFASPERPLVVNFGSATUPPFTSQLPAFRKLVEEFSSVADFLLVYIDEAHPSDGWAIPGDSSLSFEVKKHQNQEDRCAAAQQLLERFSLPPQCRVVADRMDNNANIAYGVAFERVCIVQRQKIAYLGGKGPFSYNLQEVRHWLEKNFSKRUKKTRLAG
Each record here notes measured Significant DIO2 Effects in H4 Cells (%Ctrl).
quantity.name: Significant DIO2 Effects in H4 Cells (%Ctrl) (%)

>>> experimental_value("Oc1cc(Oc2cc(Br)c(Br)cc2Br)c(Br)cc1Br [5’-OH-BDE-99]")
57.4
>>> experimental_value("Brc1ccc(Oc2cc(Br)c(Br)cc2Br)c(Br)c1 [BDE-99]")
82.9
>>> experimental_value("Oc1cc(Br)cc(Br)c1Oc1ccc(Br)cc1Br [6-OH-BDE-47]")
57.1
>>> experimental_value("Oc1c(Br)ccc(Oc2ccc(Br)cc2Br)c1Br [3-OH-BDE-47]")
71.1
